molecular target: ATP-binding cassette sub-family B member 6 (Homo sapiens); assay: ABCB6 transporter inhibitors, primary screen, K562-ABCB6 cells, flow cytometry, MLPCN library (AID 602162); conditions: K562-ABCB6 porphyrin accumulation, 1 h, at 10 µM;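 further: signal is porphyrin accumulated inside mitochondria; lower ratio means ABCB6 inhibition with less porphyrin fluorescence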
The campaign covered roughly 360,000 compounds. About 690 (0.19%) were called active.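 How the source made its calls: active means fluorescence ratio to DMSO below 75%, the collection mean minus 3 SD; inconclusive means too few cells collected in the well; inactive means the rest.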 Many of the other results were omitted from the sample, so actives are more common in it than they were.
Outcomes: active, inactive

INSERT INTO measurements (compound, experimental_target, group) VALUES
  ('CCOC(=O)N1CCN(C(=O)CN(C2CCCCC2)S(C)(=O)=O)CC1', 'ATP-binding cassette sub-family B member 6 (Homo sapiens)', 'active'),
  ('CC(C)C(=O)NCC(c1cccs1)S(=O)(=O)c1ccc(F)cc1 (stereo unspecified)', 'ATP-binding cassette sub-family B member 6 (Homo sapiens)', 'active'),
  ('Cc1cccc(NC(=O)c2nc(S(=O)(=O)Cc3ccccc3)ncc2Cl)c1', 'ATP-binding cassette sub-family B member 6 (Homo sapiens)', 'active'),
  ('CCC(C)NC(=O)CN(C1CCCCC1)S(C)(=O)=O (stereo unspecified)', 'ATP-binding cassette sub-family B member 6 (Homo sapiens)', 'inactive'),
  ('CCCn1c(O)c(CN2CCCC(C)C2)c(C)c(C#N)c1=O (stereo unspecified)', 'ATP-binding cassette sub-family B member 6 (Homo sapiens)', 'inactive'),
  ('O=C(CS(=O)(=O)Cc1ccccc1)Nc1cccnc1', 'ATP-binding cassette sub-family B member 6 (Homo sapiens)', 'inactive');

Origin of the recorded values: PubChem BioAssay AID602162
